The reported measurements were obtained from patent US12655148B2.

Target: FXR receptor (Homo sapiens)
Construct: expressed in transfected cells; host or cells: 293T cells
Sequence (Q96RI1 1-486): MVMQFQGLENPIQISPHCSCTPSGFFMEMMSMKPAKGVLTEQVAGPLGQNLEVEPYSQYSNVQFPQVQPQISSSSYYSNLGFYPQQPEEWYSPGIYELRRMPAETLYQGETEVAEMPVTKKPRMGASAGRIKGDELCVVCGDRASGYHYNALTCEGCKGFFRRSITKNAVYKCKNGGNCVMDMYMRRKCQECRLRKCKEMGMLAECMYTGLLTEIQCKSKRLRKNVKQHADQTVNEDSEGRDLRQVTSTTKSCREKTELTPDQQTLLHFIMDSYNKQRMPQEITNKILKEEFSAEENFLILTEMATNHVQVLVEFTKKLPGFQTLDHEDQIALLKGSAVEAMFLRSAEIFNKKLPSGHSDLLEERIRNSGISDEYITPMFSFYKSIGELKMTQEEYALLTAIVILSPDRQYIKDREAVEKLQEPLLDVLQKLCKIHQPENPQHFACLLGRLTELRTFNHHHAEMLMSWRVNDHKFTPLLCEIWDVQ
Assay: FXR activity at the cellular level (FXRE luciferase reporter in 293T cells)
Format: cell-based
Settings: 10 μM, 293T cells, luciferase reporter, relative to OCA
Exercise: for every item that follows, state its recorded FXR activity at the celluar level Activity relative to OCA (%) 10 μM.
Answers are plain numbers, in %.

State the recorded FXR activity at the celluar level Activity relative to OCA (%) 10 μM for every item in the following list.
1. O=c1[nH]c(-c2ccc(N3[C@@H]4CC[C@H]3C[C@@H](OCc3c(-c5c(Cl)cccc5Cl)noc3C3CC3)C4)nc2)no1 [Example 4]
2. Cc1ccccc1-c1noc(C2CC2)c1CO[C@H]1C[C@H]2CC[C@@H](C1)N2c1ccc(-c2noc(=O)[nH]2)cn1 [Example 12]

1. 103
2. 105

I would be grateful if you could provide FXR activity at the celluar level Activity relative to OCA (%) 10 μM for each of the following entries.
1. O=c1[nH]c(-c2ccc(N3[C@@H]4CC[C@H]3C[C@@H](OCc3c(-c5ccccc5OC(F)F)noc3C3CC3)C4)cc2F)no1 [Example 13]
2. O=c1[nH]c(-c2ccc(N3[C@@H]4CC[C@H]3C[C@@H](OCc3c(-c5ccccc5OC(F)(F)F)noc3C3CC3)C4)nc2)no1 [Example 6]
3. O=c1[nH]c(-c2ccc(N3[C@@H]4CC[C@H]3C[C@@H](OCc3c(-c5c(F)cccc5F)noc3C3CC3)C4)nc2)no1 [Example 3]
4. O=c1[nH]c(-c2ccc(N3[C@@H]4CC[C@H]3C[C@@H](OCc3c(-c5ccccc5OC(F)(F)F)noc3C3CC3)C4)cc2F)no1 [Example 10]
5. O=c1[nH]c(-c2ccc(N3[C@@H]4CC[C@H]3C[C@@H](OCc3c(-c5ccccc5OC(F)F)noc3C3CC3)C4)nc2)no1 [Example 11]
6. O=c1[nH]c(-c2ccc(N3[C@@H]4CC[C@H]3C[C@@H](OCc3c(-c5ccccc5C(F)(F)F)noc3C3CC3)C4)cc2F)no1 [Example 9]
7. Cc1ccccc1-c1noc(C2CC2)c1CO[C@H]1C[C@H]2CC[C@@H](C1)N2c1ccc(-c2noc(=O)[nH]2)c(F)c1 [Example 14]

1. 108
2. 122
3. 116
4. 102
5. 108
6. 102
7. 106

For every record below, what is its FXR activity at the celluar level Activity relative to OCA (%) 10 μM?
1. O=c1[nH]c(-c2ccc(N3[C@@H]4CC[C@H]3C[C@@H](OCc3c(-c5c(F)cccc5F)noc3C3CC3)C4)cc2F)no1 [Example 7]
2. O=c1[nH]c(-c2ccc(N3[C@@H]4CC[C@H]3C[C@@H](OCc3c(-c5c(Cl)cccc5Cl)noc3C3CC3)C4)cc2)no1 [Example 1]
3. O=c1[nH]c(-c2ccc(N3[C@@H]4CC[C@H]3C[C@@H](OCc3c(-c5c(Cl)cccc5Cl)noc3C3CC3)C4)cc2F)no1 [Example 8]

1. 117
2. 88
3. 102

Lab note: each molecule below needs its FXR activity at the celluar level Activity relative to OCA (%) 10 μM filled in.
1. O=c1[nH]c(-c2ccc(N3[C@@H]4CC[C@H]3C[C@H](OCc3c(-c5c(Cl)cccc5Cl)noc3C3CC3)C4)cc2)no1 [Example 2]
2. O=c1[nH]c(-c2ccc(N3[C@@H]4CC[C@H]3C[C@@H](OCc3c(-c5ccccc5C(F)(F)F)noc3C3CC3)C4)nc2)no1 [Example 5]

[73, 141]

----------
Target: recombinant GST-FXR fusion protein (Homo sapiens)
Assay: FXR activity at the molecular level (AlphaScreen)
Assay type: biochemical
Details: AlphaScreen, GST-FXR; read-out: FXR activity at the molecular level EC50
Description: Test Method for FXR Activity at the Molecular Level FXR activity was determined using recombinant GST-FXR fusion protein by AlphaScreen detection reagent from PerkinElmer. The reaction in this method was carried out in a 384-well plate, and the total reaction volume was 15 μL. […] The FXR activity was reflected by the fluorescence signal intensity at 570 nm wavelength detected by the Envision fluorescence detector.
REPORTED_ENDPOINT: EC50

Worked cases, answers included:
For `O=c1[nH]c(-c2ccc(N3[C@@H]4CC[C@H]3C[C@@H](OCc3c(-c5c(Cl)cccc5Cl)noc3C3CC3)C4)cc2F)no1` on recombinant GST-FXR fusion protein (Homo sapiens), measured EC50 was < 10 nM

Record `O=c1[nH]c(-c2ccc(N3[C@@H]4CC[C@H]3C[C@@H](OCc3c(-c5ccccc5C(F)(F)F)noc3C3CC3)C4)cc2F)no1` ; system recombinant GST-FXR fusion protein (Homo sapiens); EC50 = 10 to 100 nM

Now for the molecule whose EC50 we want.
Note to self: EC50 of `Cc1ccccc1-c1noc(C2CC2)c1CO[C@H]1C[C@H]2CC[C@@H](C1)N2c1ccc(-c2noc(=O)[nH]2)c(F)c1` with recombinant GST-FXR fusion protein (Homo sapiens) was 10 to 100 nM

----------
Target: recombinant GST-FXR fusion protein (Homo sapiens, UniProt Q96RI1)
Sequence (Q96RI1 1-486): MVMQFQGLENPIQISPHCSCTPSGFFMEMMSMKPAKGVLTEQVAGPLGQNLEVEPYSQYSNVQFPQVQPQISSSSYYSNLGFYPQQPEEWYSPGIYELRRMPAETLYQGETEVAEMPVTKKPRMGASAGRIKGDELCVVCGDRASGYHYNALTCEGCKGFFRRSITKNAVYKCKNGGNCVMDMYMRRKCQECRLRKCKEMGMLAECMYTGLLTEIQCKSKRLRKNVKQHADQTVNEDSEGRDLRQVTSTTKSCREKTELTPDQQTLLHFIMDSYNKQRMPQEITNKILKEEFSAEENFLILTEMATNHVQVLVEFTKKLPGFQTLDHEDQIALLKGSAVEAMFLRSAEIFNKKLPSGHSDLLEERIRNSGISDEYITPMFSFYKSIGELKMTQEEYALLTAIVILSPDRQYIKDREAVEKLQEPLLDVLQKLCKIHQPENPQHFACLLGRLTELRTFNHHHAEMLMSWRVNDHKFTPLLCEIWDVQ
Assay: FXR activity at the molecular level (AlphaScreen)
Assay type: biochemical
pEC50: −log10 of the molar value.
REPORTED_ENDPOINT: pEC50

Entry O=c1[nH]c(-c2ccc(N3[C@@H]4CC[C@H]3C[C@@H](OCc3c(-c5c(F)cccc5F)noc3C3CC3)C4)cc2F)no1 [Example 7] — recorded pEC50 = 7.00 to 8.00

----------
Biological target: FXR receptor (Homo sapiens, UniProt Q96RI1)
Construct: expressed in transfected cells; host or cells: 293T cells
Sequence (Q96RI1 1-486): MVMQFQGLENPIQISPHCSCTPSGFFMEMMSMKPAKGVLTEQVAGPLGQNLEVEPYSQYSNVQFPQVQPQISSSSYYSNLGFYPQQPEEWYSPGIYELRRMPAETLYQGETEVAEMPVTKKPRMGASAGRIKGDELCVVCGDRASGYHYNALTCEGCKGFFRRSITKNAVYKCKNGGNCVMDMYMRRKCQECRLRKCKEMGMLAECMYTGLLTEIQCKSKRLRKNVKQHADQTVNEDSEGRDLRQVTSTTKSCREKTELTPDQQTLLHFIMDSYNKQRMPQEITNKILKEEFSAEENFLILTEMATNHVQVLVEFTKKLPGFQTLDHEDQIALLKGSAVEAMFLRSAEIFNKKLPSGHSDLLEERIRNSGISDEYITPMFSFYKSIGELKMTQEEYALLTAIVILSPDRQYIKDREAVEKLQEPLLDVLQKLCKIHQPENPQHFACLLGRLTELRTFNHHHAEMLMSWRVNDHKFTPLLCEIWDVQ
Experiment: FXR activity at the cellular level (FXRE luciferase reporter in 293T cells)
Format: cell-based
Conditions: 293T cells, luciferase reporter; read-out: FXR activity at the celluar level EC50
REPORTED_ENDPOINT: EC50

Per the record, `Cc1ccccc1-c1noc(C2CC2)c1CO[C@H]1C[C@H]2CC[C@@H](C1)N2c1ccc(-c2noc(=O)[nH]2)cn1` has EC50 of 1 to 10 nM

Hi! Can you tell me EC50 for each of these molecules?
1. O=c1[nH]c(-c2ccc(N3[C@@H]4CC[C@H]3C[C@@H](OCc3c(-c5c(Cl)cccc5Cl)noc3C3CC3)C4)cc2)no1
2. O=c1[nH]c(-c2ccc(N3[C@@H]4CC[C@H]3C[C@@H](OCc3c(-c5ccccc5C(F)(F)F)noc3C3CC3)C4)cc2F)no1
3. O=c1[nH]c(-c2ccc(N3[C@@H]4CC[C@H]3C[C@@H](OCc3c(-c5c(Cl)cccc5Cl)noc3C3CC3)C4)nc2)no1
4. O=c1[nH]c(-c2ccc(N3[C@@H]4CC[C@H]3C[C@@H](OCc3c(-c5ccccc5C(F)(F)F)noc3C3CC3)C4)nc2)no1
5. O=c1[nH]c(-c2ccc(N3[C@@H]4CC[C@H]3C[C@@H](OCc3c(-c5ccccc5OC(F)F)noc3C3CC3)C4)cc2F)no1

1: 1 to 10 nM; 2: 0.1 to 1 nM; 3: < 0.1 nM; 4: 0.1 to 1 nM; 5: 0.1 to 1 nM
